Entry source: ChEMBL document CHEMBL1134336

Target: Prostaglandin G/H synthase 1 (Homo sapiens, UniProt P23219)
Sequence (P23219 whole entry): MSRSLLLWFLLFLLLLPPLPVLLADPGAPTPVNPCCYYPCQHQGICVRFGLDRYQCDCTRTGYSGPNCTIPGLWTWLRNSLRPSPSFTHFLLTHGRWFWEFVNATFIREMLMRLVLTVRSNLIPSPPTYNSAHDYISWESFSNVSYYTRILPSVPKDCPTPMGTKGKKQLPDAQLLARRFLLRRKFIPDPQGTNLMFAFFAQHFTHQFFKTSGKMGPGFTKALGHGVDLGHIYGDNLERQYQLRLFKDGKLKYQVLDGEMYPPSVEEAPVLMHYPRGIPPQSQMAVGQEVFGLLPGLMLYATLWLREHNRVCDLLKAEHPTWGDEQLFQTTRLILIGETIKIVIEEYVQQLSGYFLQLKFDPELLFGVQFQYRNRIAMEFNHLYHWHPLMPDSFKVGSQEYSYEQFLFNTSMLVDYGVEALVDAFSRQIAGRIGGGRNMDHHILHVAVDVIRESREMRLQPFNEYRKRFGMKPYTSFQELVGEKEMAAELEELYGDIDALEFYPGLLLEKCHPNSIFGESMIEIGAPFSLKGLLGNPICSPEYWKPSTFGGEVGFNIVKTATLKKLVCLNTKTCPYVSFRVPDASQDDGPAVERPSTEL
Test: Percentage of inhibition of Prostaglandin G/H synthase 1 activity in human whole blood (HWB) at 10 uM
Format: tissue-based
value type: inhibition (%)
Give just the numeric value; % need not be written.

The recorded inhibition for entry Cc1nc(C)n2nc(-c3ccc(S(C)(=O)=O)cc3)c(-c3ccc(F)cc3)c2n1 equals 4.75

The recorded inhibition for entry Cc1cnn2c(-c3ccc(F)cc3)c(-c3ccc(S(C)(=O)=O)cc3)nc2c1C equals 0

The recorded inhibition for entry CCCCc1cnnc2c(-c3ccc(F)cc3)c(-c3ccc(S(C)(=O)=O)cc3)nn12 equals 69.8

The recorded inhibition for entry Cc1cc(Cl)n2nc(-c3ccc(S(C)(=O)=O)cc3)c(-c3ccc(F)cc3)c2n1 equals 32.5

The recorded inhibition for entry Cc1cnc2c(-c3ccc(F)c(F)c3)c(-c3ccc(S(C)(=O)=O)cc3)nn2c1C equals 36.3

The recorded inhibition for entry CCCCc1cc(C)nc2c(-c3ccc(F)cc3)c(-c3ccc(S(C)(=O)=O)cc3)nn12 equals 0

The recorded inhibition for entry Cc1cnc2c(-c3ccc(F)cc3)c(-c3ccc(S(C)(=O)=O)cc3)nn2c1-c1ccccc1 equals 0

The recorded inhibition for entry CCOC(=O)c1cc(C)n2nc(-c3ccc(S(C)(=O)=O)cc3)c(-c3ccc(F)cc3)c2n1 equals 8

The recorded inhibition for entry Cc1cnc2c(-c3ccc(F)c(F)c3)c(-c3ccc(S(N)(=O)=O)cc3)nn2c1C equals 68.2

The recorded inhibition for entry CCCCc1nccn2c(-c3ccc(F)cc3)c(-c3ccc(S(C)(=O)=O)cc3)nc12 equals 9.8

The recorded inhibition for entry CCCc1cnnc2c(-c3ccc(F)cc3)c(-c3ccc(S(C)(=O)=O)cc3)nn12 equals 29.3

The recorded inhibition for entry CS(=O)(=O)c1ccc(-c2nn3c4c(cnc3c2-c2ccc(F)cc2)CSC4)cc1 equals 0

The recorded inhibition for entry CC(=O)c1cnc2c(-c3ccc(F)cc3)c(-c3ccc(S(C)(=O)=O)cc3)nn2c1C equals 71.1

The recorded inhibition for entry CS(=O)(=O)c1ccc(-c2nn3c4c(cnc3c2-c2ccc(F)cc2)SCC4)cc1 equals 7

The recorded inhibition for entry Cc1cc(O)n2nc(-c3ccc(S(C)(=O)=O)cc3)c(-c3ccc(F)cc3)c2n1 equals 8.1

The recorded inhibition for entry CCc1cnc2c(-c3ccc(F)cc3)c(-c3ccc(S(C)(=O)=O)cc3)nn2c1C equals 91.8

The recorded inhibition for entry Cc1cnc2c(-c3ccc(F)cc3F)c(-c3ccc(S(C)(=O)=O)cc3)nn2c1C equals 80.8

The recorded inhibition for entry Cc1ccnc2c(-c3ccc(F)cc3)c(-c3ccc(S(C)(=O)=O)cc3)nn12 equals 50.5

The recorded inhibition for entry CCc1nnc2c(-c3ccc(F)cc3)c(-c3ccc(S(C)(=O)=O)cc3)nn2c1CC equals 88.7

###

Test system: Rattus norvegicus
Test: In vivo inhibition of Carrageenan-induced rat paw edema was determined in male Sprague-Dawley rat at a dose of 30 mg/kg
Type: functional
value type: inhibition in vivo at 30 mg/kg (%)
Give just the numeric value; % need not be written.

The recorded inhibition in vivo at 30 mg/kg for entry CS(=O)(=O)c1ccc(-c2nn3c4c(cnc3c2-c2ccc(F)cc2)C(=O)CCC4)cc1 equals 22.4

The recorded inhibition in vivo at 30 mg/kg for entry CS(=O)(=O)c1ccc(-c2nn3c4c(cnc3c2-c2ccc(F)cc2)C(=O)CC4)cc1 equals 26.3

The recorded inhibition in vivo at 30 mg/kg for entry Cc1c(CO)cnc2c(-c3ccc(F)cc3)c(-c3ccc(S(C)(=O)=O)cc3)nn12 equals 17.3

The recorded inhibition in vivo at 30 mg/kg for entry CCOC(=O)c1cnc2c(-c3ccc(F)cc3)c(-c3ccc(S(C)(=O)=O)cc3)nn2c1C equals 20.2
